Tested on: HCV replicon, genotype-1a variant with glutamine 30 changed to glutamate in the NS5A protein
measurement.description: microbe, parasite or virus in culture
Type: cell-based, HCV genotype 1a
assay.setup: HCV replicon genotype 1a Q30E (Q→E) variant; test compound titrated with an NS5A-targeting compound (BMS-790052 fixed at 200 nM); ranking of synergist activity
Hi there, I'd appreciate the recorded Fold-Synergistic 1a (Q30E) for every entry that follows.

Hello, please tell me recorded Fold-Synergistic 1a (Q30E) for this one: O=C(C1Cc2ccccc21)N1CCC[C@H]1c1ncc(-c2ccc(-c3ccc(-c4cnc([C@@H]5CCCN5C(=O)C5Cc6ccccc65)[nH]4)cc3)cc2)[nH]1 (stereo partly drawn)
<10 fold

Hello, please tell me recorded Fold-Synergistic 1a (Q30E) for this one: CC(C)(C(=O)N[C@H](c1nc(-c2ccc(-c3ccc(-c4c[nH]c([C@@H](NC(=O)C(C)(C)C(=O)N5CCC(F)CC5)C(C)(C)C)n4)cc3)cc2)c[nH]1)C(C)(C)C)C(=O)N1CCC(F)CC1
>100 fold

Hello, please tell me recorded Fold-Synergistic 1a (Q30E) for this one: CC(C)(C)C(=O)N[C@H](c1nc(-c2ccc(-c3cnc(-c4c[nH]c([C@@H](NC(=O)C(C)(C)C)C(C)(C)C)n4)cn3)cc2)c[nH]1)C(C)(C)C
>100 fold
